Target: T1, GFP-9S library array, motif 4 ND N98C;D124F (synthetic construct, N98C;D124F)
T1 chain: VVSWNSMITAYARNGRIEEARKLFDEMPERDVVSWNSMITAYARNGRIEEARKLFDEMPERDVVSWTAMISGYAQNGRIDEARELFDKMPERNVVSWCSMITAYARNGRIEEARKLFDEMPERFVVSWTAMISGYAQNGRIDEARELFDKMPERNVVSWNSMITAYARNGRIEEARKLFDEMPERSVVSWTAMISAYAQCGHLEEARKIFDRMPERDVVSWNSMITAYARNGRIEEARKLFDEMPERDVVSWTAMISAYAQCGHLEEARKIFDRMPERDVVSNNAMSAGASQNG
Assay: high-throughput RNA pulldown from lysate on Ni-NTA beads; HRP: 50 mM Tris pH 8, 150 mM NaCl, 1 mM beta-mercaptoethanol, 50 ug/ml BSA, 3 ug/ml yeast RNA, 0.5% heparin; ITC and FP: Tris pH 8, 200 mM KCl, 5% glycerol; MST: 50 mM Tris pH 8, 200 mM NaCl, 1 mM DTT, BSA, heparin, 0.05% Tween 20
Details: tags: N-terminal His-eGFP; label: 5' Cy5
OUTCOME_MEASURE: Kd (nM)
Dear colleague, please return just the value in nM, with no unit written.

{"BINDER": "AUUACACGUGA (ssRNA) [Cy5-rpoA]", "OUTCOME_MEASURE": "Kd", "SCALE_UNIT": "nM", "TEST_RESULT": 126}

Now examine the next entry.
Q: Please give the measured Kd for this binder: AUUAGACGUGA (ssRNA) [Cy5-rpoA-G]
A: 100

Data provenance: paper PMC8809517
